Provide the recorded G.I. (%) (A. flavus growth inhibition) for the entries that follow.
- Tested on: A. flavus
- METHOD NOTES: microbe, parasite or virus in culture
- Assay type: cell-based, Aspergillus flavus
- TEST SETTINGS: 100 µM

Task: What does the data say about its G.I. (%) (A. flavus growth inhibition)? Entry: CC(C)=CCC/C(C)=C/C=N/NC(N)=S
Result: 57,0%

Task: Given the entry CCCCCCCCC=NNC(N)=S , report its measured G.I. (%) (A. flavus growth inhibition).
Result: 100%

Task: Query (compound): CCCCCCCCCC=NNC(N)=S ; field requested: G.I. (%) (A. flavus growth inhibition)
Result: 96,0%

Task: Which G.I. (%) (A. flavus growth inhibition) value is on record for CCC(/C=C/c1ccc(OC)cc1)=NNC(N)=S ?
Result: 74,0%

Task: I'd like to know its G.I. (%) (A. flavus growth inhibition). The compound in question is CC(C)c1cccc(C=NN(C)C(N)=S)c1
Result: 70,6%

Task: Requested field: G.I. (%) (A. flavus growth inhibition). Item: NC(=S)NN=c1cc(-c2ccccc2)oc2ccccc12
Result: 100%

Task: Return reported G.I. (%) (A. flavus growth inhibition); argument: Cc1ccc(S(=O)(=O)OCc2ccc3c(c2)C(=O)c2ccccc2C3=O)cc1 [Tosylate ‐2‐methyleneanthraquinone]
Result: 87,0%

Task: Entry CC12CCC(C(=NNC(N)=S)C1=NNC(N)=S)C2(C)C (stereo not drawn) : reported G.I. (%) (A. flavus growth inhibition) = ?
Result: 58,0%

Task: Quick one: G.I. (%) (A. flavus growth inhibition) for CCCCC(=NNC(N)=S)c1ccccc1 ?
Result: 54,0%

---

- METHOD NOTES: Cytotoxicity assay (CellTiter 96 AQueous One) on Crl1790
- Assay type: cell-based, human
- TEST SETTINGS: human, Crl1790 (CCD 841 CoN) normal colon cells; Crl1790, 24 h, 1 µM; dose 0 = 100.00; read-out: Growth inhibition data
READOUT TYPE: viability at 24 h, 1 µM (%)
Answer format: numeric, % implied, no suffix.

Task: GET /values?readout=viability at 24 h, 1 µM&item= CC(=NNC(N)=S)c1cccs1
Result: 95.1

---

- Tested on: A. flavus
- METHOD NOTES: microbe, parasite or virus in culture
- Format: cell-based, Aspergillus flavus
- TEST SETTINGS: 100 µM
READOUT TYPE: G.I. (%) (A. flavus growth inhibition)

Task: Could you share what G.I. (%) (A. flavus growth inhibition) was measured for CCCCCCCC=NNC(N)=S , tested on A. flavus?
Result: 93,0%

Task: What measured G.I. (%) (A. flavus growth inhibition) is associated with NC(=S)NN=C1CCCCC1 on A. flavus?
Result: 95,0%

Task: So what G.I. (%) (A. flavus growth inhibition) did NC(=S)NN=CCCc1ccccc1 get with A. flavus?
Result: 107,0%

Task: Record O=C1c2ccccc2C(=O)c2cc(CO)ccc21 [2‐hydroxymethyl‐anthraquinone] : what is its G.I. (%) (A. flavus growth inhibition) with A. flavus?
Result: 62,0%

Task: What measured G.I. (%) (A. flavus growth inhibition) is associated with CCCCCCCCCCC=NNC(N)=S on A. flavus?
Result: 62,0%

Task: Kindly state the measured G.I. (%) (A. flavus growth inhibition) obtained for NC(=S)NNC(=O)c1ccc2c(c1)C(=O)c1ccccc1C2=O with A. flavus.
Result: 58,0%

Task: Kindly state the measured G.I. (%) (A. flavus growth inhibition) obtained for CCCCCC=CC=NNC(N)=S with A. flavus.
Result: 96,0%

Task: Return G.I. (%) (A. flavus growth inhibition) measured with A. flavus given this compound: C=C(C)C1CC=C(C=NNC(N)=S)CC1 (centres unmarked)
Result: 73,5%
